Test system: Neuregulin-1 EGF-like domain
Test: small molecules binding NRG1 EGF domain – biochemical, small-molecule microarray, 635 nm fluorescence, primary screen (AID 1081);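 note: binding of the protein to compounds printed on small-molecule microarray slides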
Details: higher = more signal
measurement-name: composite z-score

> print(dat)
                                   compound  value.measured
1    C#CCN(C/C=C/c1ccccc1)[C@H](CO)c1ccccc1         -0.0706
2  O=C1[C@H]2C=C(I)[C@H](C[C@@H]2OCCCCO)[C@@]12CO2           0.576
3  CN(C)CCCCNC(=O)[C@@H]1C[C@@H]2C(=O)N[C@@H](CCCCN)C(=O)N2[C@@H]1c1ccc(O)cc1            1.13
4  CN1C(=O)C2C=CC(C(O)c3ccc(F)cc3)N(N(c3ccccc3)c3ccccc3)C2C1=O (stereo not given)            1.03
5  C#CCN1[C@H](/C=C/C2CC2)[C@H](Cc2ccccc2)OC(=O)[C@@H]1Cc1ccccc1           0.524

* * *

Target: Torsin-1A-interacting protein 1 (Homo sapiens)
Assay: compound microarray binding of lysate hLAP1 – cell lysate, small-molecule microarray, COS7 lysate, 635/667 nm fluorescence, primary screen (AID 1116)
Details: 635 nm fluorescence, higher = more signal

compound	target-or-test-system	composite z-score
Cc1ccc(S(=O)(=O)N2C[C@@H](C(=O)O)[C@H](Sc3ccccc3)C[C@H]2c2ccccc2)cc1	Torsin-1A-interacting protein 1 (Homo sapiens)	1.97
CCCC(=O)N(CCc1c[nH]c2ccccc12)[C@@H]1CC(C(=O)NCCO)=C[C@H](Oc2c(I)cc(CO)cc2OC)[C@H]1O	Torsin-1A-interacting protein 1 (Homo sapiens)	0.0957
CCN(CC)c1ccc(N2CC=CC34O[C@@H]5/C=C\CCC(C)OC(=O)C5[C@H]3C(=O)N(CCCCCO)[C@@H]4C2=O)cc1 (stereo not given in full)	Torsin-1A-interacting protein 1 (Homo sapiens)	-1.59
CC(C)[C@@H](C(=O)O)n1cc(C2(O)CCCCC2)nn1	Torsin-1A-interacting protein 1 (Homo sapiens)	0.563
COc1ccc([Si](C)(C)[C@H]2[C@H](CC(=O)N3CCC[C@H]3CO)O[C@@]3(C(=O)N(Cc4cccc(N5CCOC5=O)c4)c4ccccc43)[C@@H]2C)cc1	Torsin-1A-interacting protein 1 (Homo sapiens)	0.368
C=CC[C@]1(C(=O)NCc2ccccc2)N=C(c2ccc(OCCCO)cc2)O[C@H]1c1ccccc1CN=[N+]=[N-]	Torsin-1A-interacting protein 1 (Homo sapiens)	0.854
CCOC(=O)C[C@H]1[C@H](OC(=O)c2cc3ccccc3oc2=O)[C@@H](NC(=O)CC(C)C)c2cc(OCCCO)ccc2N1C(=O)c1ccccc1	Torsin-1A-interacting protein 1 (Homo sapiens)	0.124
COC(=O)[C@]1(Cc2ccccc2)N=C(c2ccc(OCCCO)cc2)O[C@@H]1c1ccccc1N=[N+]=[N-]	Torsin-1A-interacting protein 1 (Homo sapiens)	-0.279
CCCCCCCCCCC(O)C1C=CC2C(=O)NC(=O)C2N1Nc1ccc(Cl)cc1Cl (stereo not given)	Torsin-1A-interacting protein 1 (Homo sapiens)	0.345
NCCCCCNC(=O)[C@H]1C[C@H]2C(=O)N[C@@H](Cc3ccccc3)C(=O)N2[C@H]1c1cccc(OCCO)c1	Torsin-1A-interacting protein 1 (Homo sapiens)	2.09
CO[C@H]1O[C@H](CO)[C@@H](OC(=O)Nc2ccccc2)[C@@H]2OC(=O)[C@@H](Cc3ccc4ccccc4c3)C/C=C/C[C@H](Cc3ccc4ccccc4c3)C(=O)O[C@@H]12	Torsin-1A-interacting protein 1 (Homo sapiens)	1.72
O[C@@H](Cc1ccccc1)[C@@H](/C=C/C1CC1)NCc1cccc(Cl)c1	Torsin-1A-interacting protein 1 (Homo sapiens)	-0.737
C=CCNC(=O)[C@H]1[C@@H]2C(=O)O[C@@H](c3ccccc3)[C@@H](c3ccccc3)N2[C@@H](c2ccc(OCCO)cc2)[C@]12C(=O)Nc1ccc(C#CCC(C(=O)OC)C(=O)OC)cc12	Torsin-1A-interacting protein 1 (Homo sapiens)	0.357
COC(=O)[C@@]1(CCC(=O)OC(C)(C)C)N=C(c2ccc(OCCCO)cc2)O[C@H]1c1ccccc1	Torsin-1A-interacting protein 1 (Homo sapiens)	0.692
CCN(CC)c1ccc(N2CC=CC34O[C@@H]5C=CCOC(=O)[C@@H]5[C@H]3C(=O)N(CCCCCCO)[C@@H]4C2=O)cc1 (stereo not given in full)	Torsin-1A-interacting protein 1 (Homo sapiens)	2.01

* * *

Assay: S. pombe growth modifiers, basal conditions – strain 972, OD600, 24 h, no modulator, primary screen (AID 1090);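 note: basal condition with compound alone and no growth modifier present; test concentration not given here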
Settings: S. pombe 972 growth, called active from +8 up or from −8 down
Active and inactive are the calls of the source.
Classes used: active, inactive

> print(dat)
                                    molecule  assigned.label
 1  CC(C)CN1C(=O)[C@@]2(c3ccc([N+](=O)[O-])cc3)CC(=O)N(C3CCCCC3)[C@@H]2c2ccc(CO)cc21        inactive
 2  CO[C@H]1O[C@H](CO)[C@@H](OC(=O)Nc2ccccc2-c2ccccc2)[C@H](OC(=O)Nc2ccccc2-c2ccccc2)[C@@H]1OC(=O)Nc1ccccc1-c1ccccc1        inactive
 3  O=C1C2C=CC(C(O)c3cc(C(F)(F)F)cc(C(F)(F)F)c3)N(Nc3ccccc3)C2C(=O)N1c1ccccc1 (stereo not given)        inactive
 4  CCOc1cc(C(O)C2C=CC3C(=O)N(c4ccccc4)C(=O)C3N2Nc2ccc(C(C)C)cc2)ccc1O (stereo not given)        inactive
 5  COc1ccc([Si](C)(C)[C@@H]2[C@@H](CCn3cc([C@H](O)c4ccccc4)nn3)O[C@]3(C(=O)N(Cc4cccc(N5CCC5=O)c4)c4ccccc43)[C@H]2C)cc1        inactive
 6  CS(=O)(=O)CCOC(=O)C1=CC(CCCO)=CC(c2ccc(CN3CCCC3)cc2)N(Cc2cccc(OC(F)(F)F)c2)C=C1C(=O)OCCS(C)(=O)=O (stereo not given)          active
 7  CCCCCCCCCCC(O)C1C=CC2C(=O)NC(=O)C2N1Nc1ccc(Cl)cc1Cl (stereo not given)        inactive
 8  CS(=O)(=O)CCOC(=O)C1=CC(CCCO)=CC(C2CC2)N(Cc2cc3c(cc2Br)OCO3)C=C1C(=O)OCCS(C)(=O)=O (stereo not given)        inactive
 9  CC(=CC1CCCCC1)[C@@H](NC(=O)c1cccnc1)c1ccc(-c2ccccc2)cc1        inactive
10  COc1ccc([Si](C)(C)[C@@H]2[C@@H](CCn3cc(CCO)nn3)O[C@]3(C(=O)N(Cc4cccc(N5C(=O)c6cccc7cccc5c67)c4)c4ccccc43)[C@H]2C)cc1        inactive

* * *

Assay: probe aXIP binding to arrayed compounds – biochemical, NeuroSMM set, 635/667 nm fluorescence, primary screen (AID 1119);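 note: probe is the protein aXip251-270 applied at 1 µg/mL to compound-printed slides; binding of probe to printed compounds measured as 667 nm fluorescence plus signal to noise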
Details: small-molecule microarray, higher = more signal, called active from +8 up or from −8 down
Active and inactive are the calls of the source.
Let's look at some compounds and their measured composite Z-score.
measurement-name: composite Z-score

> print(dat)
                                   compound   measurement.name     value.measured
1  COC(=O)[C@@]1(Cc2ccc(OC)cc2)[C@H]2c3cc(C(=O)N4CCCC4)n(CCc4ccc(O)c(O)c4)c3C[C@H]2CN1C(=O)c1ccccc1  composite Z-score    -0.2 (inactive)
2    C#CCN(C/C=C/c1ccccc1)[C@H](CO)c1ccccc1  composite Z-score  -0.014 (inactive)
3  CCCCCCc1nc(-c2ccc(-c3ccc(Cl)c(Cl)c3)o2)c(C)c2c1[Si](C(C)C)(C(C)C)OC2  composite Z-score  0.0001 (inactive)
4  C=C(C)[C@@H]1CC=C(C(O)C2C=CC3C(=O)NC(=O)C3N2Nc2ccc(Cl)cc2Cl)CC1 (some centres undefined)  composite Z-score   0.114 (inactive)

* * *

Target: Epidermal growth factor receptor (Homo sapiens)
Assay: compounds binding epidermal growth factor receptor – biochemical, small-molecule microarray, 635 nm fluorescence, primary screen (AID 1104);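 note: score merges 667 nm emission intensity with spot signal to noise over triplicate slides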
Conditions: EGFR binding, higher = more signal
Decision: composite z-score compared against 0.3; not below it gives rule met, below it gives rule not met.

molecule	assigned-label
O=C1OCCC=C[C@H]2OC34C=CCN(Cn5nnc6ccccc65)C(=O)[C@H]3N(CCO)C(=O)[C@@H]4C12 (stereo not given in full)	rule not met
CN(C)CCCCCCNC(=O)[C@@H]1C[C@@H]2C(=O)N3CCC[C@H]3C(=O)N2[C@@H]1c1ccc(O)cc1	rule met
COCCOC(=O)N1C(=O)[C@@]2(c3cc(C#CC4=CCCCC4)ccc31)[C@H](C(N)=O)[C@H]1C(=O)O[C@H](c3ccccc3)[C@H](c3ccccc3)N1[C@@H]2c1ccc(O)cc1	rule met
COC(=O)[C@@]1(Cc2ccc(OC)cc2)[C@H]2c3cc(C(=O)N(C)C)n(Cc4ccc(C(F)(F)F)nc4)c3C[C@H]2CN1C(=O)c1ccccc1	rule not met
C=C[C@H](C)[C@@H](OC(=O)Nc1ccc(SC)cc1)c1ccc(O)c2ccccc12	rule met
CN1C(=O)C2C=CC(C(O)c3ccccc3)N(N3CCCCC3)C2C1=O (stereo not given)	rule not met
COCCOC(=O)N1C(=O)[C@@]2(c3cc(C#CC4(O)CCCCCC4)ccc31)[C@H](C(=O)Nc1nc3ccccc3s1)[C@H]1C(=O)O[C@H](c3ccccc3)[C@H](c3ccccc3)N1[C@@H]2c1ccccc1OCCO	rule met
C=CC[C@]12N=C(c3ccc(OCCCO)cc3)O[C@H]1c1ccccc1N(CCS(=O)(=O)c1ccccc1)C2=O	rule met
CCOC(=O)C1=CC[C@@H](c2ccccc2)N(S(=O)(=O)c2ccc(C)cc2)[C@H]1c1ccc(CC)cc1	rule not met
O=C1NC(=O)C2C1C=CC(C(O)c1ccc(I)cc1)N2Nc1ccc(Cl)cc1Cl (stereo not given)	rule not met
[N-]=[N+]=Nc1ccccc1[C@H]1OC(c2ccc(OCCCO)cc2)=N[C@@]1(Cc1ccccc1)C(=O)N1CCOCC1	rule met
O=C(CS)NCCCCCNC(=O)[C@H]1C[C@H]2C(=O)NCC(=O)N2[C@H]1c1ccc(O)cc1	rule not met
COc1cc2c(cc1O)C(c1cccs1)N(Cc1ccc([N+](=O)[O-])o1)CC2 (stereo not given)	rule not met
COc1ccc(C(=O)Nc2ccc(CN3C(=O)[C@]4(O[C@H](CC(=O)N5CCC[C@H]5CO)[C@@H]([Si](C)(C)c5ccc(OC)cc5)[C@@H]4C)c4ccccc43)cc2)cc1	rule met
COCCCNC(=O)[C@]1(Cc2ccccc2)N=C(c2ccc(OCCCO)cc2)O[C@@H]1c1ccccc1CN=[N+]=[N-]	rule not met
C=C(/C(=C/C[C@H](OC(=O)c1ccncc1)c1ccc(OCCO)cc1)c1cc(C(=O)OC)ccc1OC)C(C)C	rule not met
COc1ccc([C@H]2OC[C@@H]3CCC(=O)N32)cc1	rule met
COc1ccc(CCNC(=O)[C@@]2(C)c3ccccc3C(=O)N(c3ccc(C)cn3)[C@H]2c2ccc(CO)cc2)cc1	rule not met
CN(C)C(=O)[C@]1(Cc2ccccc2)N=C(c2ccc(OCCCO)cc2)O[C@@H]1c1ccccc1N=[N+]=[N-]	rule met
N#Cc1ccc(C(O)C2C=CC3C(=O)N(c4ccccc4)C(=O)C3N2Nc2ccccc2F)cc1 (stereo not given)	rule met
COCCOC(=O)N1C(=O)[C@@]2(c3ccccc31)[C@H](C(N)=O)[C@H]1C(=O)O[C@H](c3ccccc3)[C@H](c3ccccc3)N1[C@@H]2c1ccc(O)cc1	rule not met
COc1ccc([C@H]2C[C@H]3C(I)=C[C@@H]2C(=O)[C@]32CO2)cc1	rule not met
COc1ccc([Si](C)(C)[C@H]2[C@H](CCn3cc([C@H](O)c4ccccc4)nn3)O[C@@]3(C(=O)N(C)c4ccccc43)[C@@H]2C)cc1	rule not met
CCOC(=O)C[C@H]1[C@H](OC(=O)c2ccc(C(=O)c3ccccc3)cc2)[C@@H](NC(=O)Cc2ccc(OC)cc2)c2cc(OCCCO)ccc2N1C(=O)c1ccc2ccccc2n1	rule not met
Cc1ccc(C2C3C(=O)CC4C(=O)N(c5ccccc5)C(=O)C4C3CN2S(=O)(=O)c2ccc(C)cc2)cc1 (stereo not given)	rule met
COC(=O)[C@@]1(Cc2ccccc2)[C@H]2c3cc(C(=O)N(C)C)n(CCc4c[nH]c5ccc(O)cc45)c3C[C@H]2CN1C(=O)c1ccccc1	rule not met
C=CC[C@]1(C(=O)NCc2ccccc2)N=C(c2ccc(OCCCO)cc2)O[C@H]1c1ccccc1CN=[N+]=[N-]	rule not met
COc1ccc([Si](C)(C)[C@@H]2[C@@H](CC(=O)N3CCC[C@H]3CO)O[C@]3(C(=O)N(Cc4cccc(I)c4)c4ccccc43)[C@H]2C)cc1	rule met
C=CCC(OC(C)=O)[C@@H]1[C@@H](N(Cc2ccc(-c3ccccc3)cc2)C(=O)Cc2ccc(F)cc2)c2cc(OCCCO)ccc2N1C(=O)c1ccc2ccccc2c1 (stereo not given in full)	rule not met
